# % CD63+ basophils at 100 µg/mL annotations
molecular target: human IgE pre-bound on human basophils (human) (UniProt P01854); experiment: cell-based or functional assay
Sequence (P01854 whole entry, chain 1 of 2): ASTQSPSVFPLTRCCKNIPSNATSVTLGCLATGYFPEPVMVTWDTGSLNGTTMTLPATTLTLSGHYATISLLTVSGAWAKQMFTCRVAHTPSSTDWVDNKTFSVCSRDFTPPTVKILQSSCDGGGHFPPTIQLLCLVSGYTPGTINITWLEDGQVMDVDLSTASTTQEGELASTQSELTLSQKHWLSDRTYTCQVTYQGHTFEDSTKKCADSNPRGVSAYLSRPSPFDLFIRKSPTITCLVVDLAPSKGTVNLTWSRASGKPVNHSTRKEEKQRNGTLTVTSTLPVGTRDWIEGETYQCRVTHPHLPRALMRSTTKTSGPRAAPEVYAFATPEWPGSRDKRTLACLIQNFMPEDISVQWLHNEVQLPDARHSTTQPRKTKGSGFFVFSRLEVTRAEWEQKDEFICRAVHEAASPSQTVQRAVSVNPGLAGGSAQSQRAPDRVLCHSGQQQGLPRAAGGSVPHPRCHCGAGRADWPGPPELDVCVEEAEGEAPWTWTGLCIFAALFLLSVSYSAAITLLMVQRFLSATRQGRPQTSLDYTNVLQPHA
Sequence (P12319 26-257, chain 2 of 2, further chain): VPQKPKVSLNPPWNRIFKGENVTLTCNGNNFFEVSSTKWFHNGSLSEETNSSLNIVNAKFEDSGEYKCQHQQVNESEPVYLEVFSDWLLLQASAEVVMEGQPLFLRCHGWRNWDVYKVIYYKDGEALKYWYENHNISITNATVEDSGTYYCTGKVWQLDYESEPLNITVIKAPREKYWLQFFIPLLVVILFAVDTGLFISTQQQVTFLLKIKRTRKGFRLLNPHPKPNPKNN
Write down the numeric answer in % and omit the unit.

Examples with answers:
[[record]]
binder = "18E2VHHis-ABDEG (antibody, V domains shown) VH: QLQLVESGGGLVQPGGSLRLSCAASGFTFSSYVMHWVRQAPGKGLEWVSSIYHDGSHTYYADFVKGRFTISRDNAKNTLYLQMNSLKSEDTAVYYCASGTSYSGSYYYTDPFFGSWGQGTQVTVSS VL: NFMLTQPSALSVTLGQTARITCQGDRLGSRYIYWYQQKPPQAPVLVIHDDDRRPSGIPERFSGSSSGGTATLTISGAQAEDDGDYYCQSADSSGNPVFGGGTHLTVL"
obs_value = 4.8

[[record]]
binder = "18E2His2-hIgG1-ABDEG (antibody, V domains shown) VH: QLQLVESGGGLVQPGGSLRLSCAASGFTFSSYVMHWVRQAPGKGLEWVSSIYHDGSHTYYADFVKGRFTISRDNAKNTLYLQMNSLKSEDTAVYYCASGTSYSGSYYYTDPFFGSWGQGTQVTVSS VL: NFMLTQPSALSVTLGQTARITCQGDRLGSRYIHWYQQKPPQAPVLVIHDDDRRPSGIPERFSGSSSGGTATLTISGAQAEDDGDYYCQSADSSGNPVFGGGTHLTVL"
obs_value = 4.3

[[record]]
binder = "18E2VLHis-ABDEG (antibody, V domains shown) VH: QLQLVESGGGLVQPGGSLRLSCAASGFTFSSYVMSWVRQAPGKGLEWVSSIYHDGSHTYYADFVKGRFTISRDNAKNTLYLQMNSLKSEDTAVYYCASGTSYSGSYYYTDPFFGSWGQGTQVTVSS VL: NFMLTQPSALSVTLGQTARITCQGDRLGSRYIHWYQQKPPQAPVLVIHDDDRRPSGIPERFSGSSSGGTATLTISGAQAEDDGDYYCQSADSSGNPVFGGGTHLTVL"
obs_value = 3.1

[[record]]
binder = "18B9His-hIgG1-WT (antibody, V domains shown) VH: QVQLVESGGGLVQPGGSLRLSCAASGFTFSSYVMSWVRQAPGKGLEWVSSIYSDGSHTYYADSVKGRFTISRDNAKNTLYLQMNSLKSEDTAVYYCAKNLEHYSGSYYYTDPRYDYWGQGTQVTVSS VL: SSALTQPSALSVTLGQTAKITCQGGSLGSSYVHWYQQKPGQAPVLVIHDGDSRPSGIPERFSGSSSGGTATLTISGAQAEDEDDYYCQSADSSGNAVFGGGTHLTVL"
obs_value = 37


Proceed to the following item.
Tell me the measured % CD63+ basophils at 100 µg/mL of 13E4-hIgG1-ABDEG (antibody, V domains shown) VH: ELQLVESGGGLVQPGGSLRLSCAASGFTFSSYVMSWVRQAPGKGLEWVSSIYHDGSHTYYADFVKGRFTISRDNAKNTLYLQMNSLKSEDTAVYYCASGTSYSGSYYYTDPFFGSWGQGTQVTVSS VL: HSAVTQPSALSVTLGQTAKITCQGGSLGSNYAYWYQQKPGQAPVLVIYDDDSRPSGIPERFSGSSSGGTATLTISGAQAEDEGDYYCQSADSNGNAVFGGGTHLTVL , please. 68.6
